Origin of values: patent US20240285808A1

method: Biodistribution of ^nat/52Mn-based probes in naïve mice
Type: in vivo, mouse
details: 24 h post injection
# maps each entry to its Biodistribution, Spleen
endpointLabel: Biodistribution, Spleen (% ID/g)

- CN(C)C(CCC(=O)NCCCN1CCN(CC(=O)[O-])Cc2cccc(n2)CN(CC(=O)[O-])CC1)C(=O)O.[Mn+2] (stereo not shown): 0.0616
- NNC(CCC(=O)NCCCN1CCN(CC(=O)[O-])Cc2cccc(n2)CN(CC(=O)[O-])CC1)C(=O)O.[Mn+2] (stereo not shown): 0.0843
- NNCC(=O)NCCCN1CCN(CC(=O)[O-])Cc2cccc(n2)CN(CC(=O)[O-])CC1.[Mn+2]: 0.0965
- NOC(CCC(=O)NCCCN1CCN(CC(=O)[O-])Cc2cccc(n2)CN(CC(=O)[O-])CC1)C(=O)O.[Mn+2] (stereo not shown): 0.1978
